The measured values listed here are drawn from the supplement of paper PMC12350171.

Please go through the items and note down their growth AUC normalised to DMSO control.
Tested on: P. vulgatus WT
Test: growth AUC normalised to DMSO control (median) (fraction of control); higher = less growth inhibition, active = hit call of the paper
Conditions: 20 µM
Where a name gives a salt, the structure may show the parent alone.
# print the numeric value only

Per the reported P. vulgatus WT data, OCCN1CCN(CCCN2c3ccccc3C=Cc3ccccc32)CC1 [Opipramol dihydrochloride] has growth AUC normalised to DMSO control of 1.01

Per the reported P. vulgatus WT data, CCOC(=O)[C@H](CCc1ccccc1)N[C@H]1CS[C@H](c2cccs2)CN(CC(=O)O)C1=O [Temocapril hydrochloride] has growth AUC normalised to DMSO control of 1.03

Per the reported P. vulgatus WT data, O=C(O)Cc1ccc(-c2ccccc2)cc1 has growth AUC normalised to DMSO control of 1.01

Per the reported P. vulgatus WT data, C[C@H](CS)C(=O)N1CCC[C@H]1C(=O)O has growth AUC normalised to DMSO control of 1.06

Per the reported P. vulgatus WT data, COCCOC(=O)C1=C(C)NC(C)=C(C(=O)OC(C)C)C1c1cccc([N+](=O)[O-])c1 (stereo not given) has growth AUC normalised to DMSO control of 1

* * *

System: Vibrio cholerae
Assay: growth AUC normalised to DMSO control (fraction of control); higher = less growth inhibition, active = hit call of the paper
Conditions: 20 µM
Rule: growth AUC normalised to DMSO control under 1 gives rule not met, otherwise rule met.

Record CCCCOc1cc(C(=O)NCCN(CC)CC)c2ccccc2n1 ; criterion: growth AUC normalised to DMSO control no lower than 1. Met? rule met

Record CO[C@@H]1[C@@H](O[C@@H]2O[C@H](C)[C@@H](O[C@H]3C[C@@](C)(O)[C@@H](OC(=O)CC(C)C)[C@H](C)O3)[C@H](N(C)C)[C@H]2O)[C@@H](CC=O)C[C@@H](C)[C@@H](O)/C=C/C=C/C[C@@H](C)OC(=O)C[C@H]1OC(C)=O ; criterion: growth AUC normalised to DMSO control no lower than 1. Met? rule not met

Record N=C(N)N/N=C/c1c(Cl)cccc1Cl [Guanabenz acetate] ; criterion: growth AUC normalised to DMSO control no lower than 1. Met? rule met

Record CC[N+](CC)(CC)CCC(O)(c1ccccc1)C1CCCCC1 (configuration not stated) [Tridihexethyl chloride] ; criterion: growth AUC normalised to DMSO control no lower than 1. Met? rule met

* * *

Test system: S. enterica typhimurium WT
Assay: growth AUC normalised to DMSO control (median) (fraction of control); higher = less growth inhibition, active = hit call of the paper
Conditions: 20 µM
Counter-ions that a name gives are not always drawn.
reported endpoint: growth AUC normalised to DMSO control
# print the numeric value only

Per the reported S. enterica typhimurium WT data, CN1Cc2c(N)cccc2C(c2ccccc2)C1 (stereo not given) [Nomifensine maleate] has growth AUC normalised to DMSO control of 0.997

Per the reported S. enterica typhimurium WT data, C=CCOc1ccc(CC(=O)O)cc1Cl has growth AUC normalised to DMSO control of 1

Per the reported S. enterica typhimurium WT data, COc1ccc(C(=O)NCc2ccc(OCCN(C)C)cc2)cc1OC [Itopride] has growth AUC normalised to DMSO control of 1.02

Per the reported S. enterica typhimurium WT data, CC(=O)N[C@H]1[C@H]([C@H](O)[C@H](O)CO)OC(C(=O)O)=C[C@@H]1NC(=N)N has growth AUC normalised to DMSO control of 1

Per the reported S. enterica typhimurium WT data, CC(=O)Oc1ccccc1C(=O)Nc1ncc([N+](=O)[O-])s1 [Nitazoxanide] has growth AUC normalised to DMSO control of 0.922
